Value source: patent US7202265B2

Listing: Met Kinase % Inhibition of selected compounds
Tested on: human MET
TEST_DETAILS: MET biochemical kinase assay
Parameters: concentration or dose not given beside the values

{"columns": ["COMPOUND", "TESTED_SYSTEM", "READOUT_UNIT", "Met Kinase % Inhibition"],
 "data": [
  ["Cc1c(Br)ccc2c1C(=Cc1cccc([N+](=O)[O-])c1)C(=O)N2 [10719/C10]", "human MET", "%", 7.9],
  ["O=C1Nc2ccc(CCCl)cc2C1=Cc1ccc([N+](=O)[O-])c(O)c1 [10724/G04]", "human MET", "%", 71.0],
  ["O=C1Nc2ccc(CCCl)cc2C1=Cc1cccn1-c1ccc(Cl)cc1 [10724/G09]", "human MET", "%", "−2.8"],
  ["CNS(=O)(=O)c1ccc2c(c1)C(=Cc1[nH]c(Cl)c(CC(=O)OC)c1C(=O)OC)C(=O)N2 [10725/D09]", "human MET", "%", 28.0]
]}

====

TESTED_SYSTEM: FLK-1 receptor (Mus musculus, UniProt P35918)
Construct: expressed in transfected cells; host or cells: NIH3T3 C7#3 (FLK-1/NIH3T3)
Sequence (P35918 20-1345): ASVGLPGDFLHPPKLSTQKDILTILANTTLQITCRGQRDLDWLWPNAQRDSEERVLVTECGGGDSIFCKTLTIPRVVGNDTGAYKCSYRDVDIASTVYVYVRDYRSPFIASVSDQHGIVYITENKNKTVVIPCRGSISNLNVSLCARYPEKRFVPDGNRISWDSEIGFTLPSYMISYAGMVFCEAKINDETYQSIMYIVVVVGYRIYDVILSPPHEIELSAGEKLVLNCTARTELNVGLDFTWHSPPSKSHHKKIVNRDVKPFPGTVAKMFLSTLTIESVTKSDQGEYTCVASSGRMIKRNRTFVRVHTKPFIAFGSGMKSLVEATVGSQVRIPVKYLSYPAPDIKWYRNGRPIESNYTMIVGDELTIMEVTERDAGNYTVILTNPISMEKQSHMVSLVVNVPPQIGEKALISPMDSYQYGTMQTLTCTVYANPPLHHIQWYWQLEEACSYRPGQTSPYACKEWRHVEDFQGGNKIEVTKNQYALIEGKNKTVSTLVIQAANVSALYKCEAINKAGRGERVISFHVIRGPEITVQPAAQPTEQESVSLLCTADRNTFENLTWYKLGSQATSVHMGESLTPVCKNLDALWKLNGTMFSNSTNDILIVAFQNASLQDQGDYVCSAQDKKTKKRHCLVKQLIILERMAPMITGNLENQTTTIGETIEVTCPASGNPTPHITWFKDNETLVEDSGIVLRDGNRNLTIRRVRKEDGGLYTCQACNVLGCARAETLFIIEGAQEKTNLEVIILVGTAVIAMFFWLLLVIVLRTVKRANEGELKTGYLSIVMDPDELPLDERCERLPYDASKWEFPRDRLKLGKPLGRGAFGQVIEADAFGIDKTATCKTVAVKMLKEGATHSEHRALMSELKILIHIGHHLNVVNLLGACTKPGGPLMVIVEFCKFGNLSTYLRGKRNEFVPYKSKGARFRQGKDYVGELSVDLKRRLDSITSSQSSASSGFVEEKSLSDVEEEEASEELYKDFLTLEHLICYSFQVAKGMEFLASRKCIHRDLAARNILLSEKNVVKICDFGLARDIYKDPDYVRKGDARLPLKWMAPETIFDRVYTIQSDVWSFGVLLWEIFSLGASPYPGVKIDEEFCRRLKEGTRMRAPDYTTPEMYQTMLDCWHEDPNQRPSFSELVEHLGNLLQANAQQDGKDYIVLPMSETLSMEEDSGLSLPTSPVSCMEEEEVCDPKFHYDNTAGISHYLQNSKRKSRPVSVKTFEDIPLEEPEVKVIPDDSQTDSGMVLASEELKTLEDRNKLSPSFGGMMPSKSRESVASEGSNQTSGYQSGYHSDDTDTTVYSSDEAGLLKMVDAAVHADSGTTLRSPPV
TEST_DETAILS: FLK-1 ELISA (catalytic activity of the FLK-1 receptor in FLK-1/NIH3T3 cells)
Format: cell-based
CONDITION_CONTEXT: Table 6; read-out: FLK Kinase IC50
READOUT_LABEL: IC50 (nM)

{"columns": ["ENTRY_SMILES", "READOUT_LABEL", "REPORTED_RESULT"],
 "data": [
  ["O=C1Nc2ccc(Cl)cc2/C1=C/c1cc2c([nH]1)CCCC2", "IC50", 5000],
  ["Nc1ccc2c(c1)/C(=C/c1cc3c([nH]1)CCCC3)C(=O)N2", "IC50", 1200],
  ["O=C1Nc2ccccc2/C1=C/c1cc2c([nH]1)CCCC2", "IC50", 1400]
]}

====

Listing: Met Kinase % Inhibition of selected molecules
System: human MET
TEST_DETAILS: MET biochemical kinase assay
Parameters: concentration or dose not given beside the values

{"columns": ["ENTRY_SMILES", "Met Kinase % Inhibition, %"],
 "data": [
  ["O=C1Nc2ccc(S(=O)(=O)Nc3ccc(C(F)(F)F)cc3)cc2C1=Cc1c(Br)cnn1-c1ccc(Cl)cc1", "−4.7"],
  ["COc1ccc(C=C2C(=O)Nc3ccc(S(=O)(=O)Nc4ccc(C(F)(F)F)cc4)cc32)cc1C(C)(C)C", 2.2],
  ["O=C1Nc2ccc(S(=O)(=O)Nc3ccc(C(F)(F)F)cc3)cc2C1=Cc1ccc(N2CCCC2)cc1", 7.5],
  ["O=C1Nc2ccc(I)cc2C1=Cc1ccc([N+](=O)[O-])c(O)c1", 81.2],
  ["Cc1c(Br)ccc2c1C(=Cc1ccc(F)cc1C(F)(F)F)C(=O)N2", "−5.1"],
  ["Cc1ccc(C=C2C(=O)Nc3c(Br)cc(Br)cc32)o1", 55.3],
  ["O=C1Nc2ccc(CCCl)cc2C1=Cc1ccc([N+](=O)[O-])o1", 3.0],
  ["O=C1Nc2ccc(I)cc2C1=Cc1ccc(C(F)(F)F)cc1", 83.0],
  ["CNS(=O)(=O)c1ccc2c(c1)C(=Cc1ccc(O)c(O)c1O)C(=O)N2", 93.0],
  ["O=C1Nc2ccc(CCCl)cc2C1=Cc1cccs1", 4.5],
  ["COc1cccc(C=C2C(=O)Nc3ccc(S(=O)(=O)Nc4ccc(C(F)(F)F)cc4)cc32)c1OC", "−5.4"],
  ["Cc1c(Br)ccc2c1C(=Cc1ncc[nH]1)C(=O)N2", 30.0],
  ["CC(C)c1cc(C=C2C(=O)Nc3ccc(S(=O)(=O)Nc4ccc(C(F)(F)F)cc4)cc32)cc(C(C)C)c1Oc1ccccc1", 8.2],
  ["O=C1Nc2ccc(S(=O)(=O)N3CCOCC3)cc2C1=Cc1cc(Cl)cc(Br)c1O", 92.0],
  ["O=C1Nc2c(Br)cc(Br)cc2C1=Cc1cc(Cl)ccc1O", 68.0],
  ["Cc1[nH]c(C=C2C(=O)Nc3ccc(I)cc32)c(Br)c1Br", 91.0],
  ["COc1cccc(C=C2C(=O)Nc3ccc(CCCl)cc32)c1OC", "−0.8"],
  ["CNS(=O)(=O)c1ccc2c(c1)C(=Cc1cccn1C)C(=O)N2", 21.0]
]}
